tested on: NCI-H322M lung; assay: NCI-60 one-dose screen, 48 h; conditions: 10 µM unless noted
This is part of a sample that, as a whole, favours compounds with a hit. Of some 83,000 tested, about 20% had one in any assay. Activity calls are given as the source filed them. The calls were made as follows: active = growth percent below 10; inactive = the rest.
# valid calls are 1 (active), 0 (inactive); nothing else

| compound | classLabel |
| --- | --- |
| O=C(NCCNc1cc(-c2cn(-c3ccccc3)nc2-c2cccc(O)c2)ccn1)Nc1ccc(Cl)c(C(F)(F)F)c1 | 0 |

Req: Per the assay record, what outcome was assigned to NNC(=O)c1sc2nc(-c3cnccn3)cc(-c3cccs3)c2c1N ?
Resp: 0

Req: I'd appreciate the recorded outcome for O=C(/C=C1\C=CN(CCCCCCF)c2ccccc21)n1ccc2ccccc21 from this test.
Resp: 0

* * *

tested on: SK-MEL-28 melanoma; experiment: NCI-60 one-dose screen, 48 h; settings: 10 µM unless noted
Compounds without any hit were thinned out: in the full panel of roughly 83,000, 20% have a hit. Calls of active or inactive are those of the source. The calls were made as follows: active = growth percent below 10; inactive = the rest.
Form entry, call: pick from 1 for active, 0 for inactive

| compound | classLabel |
| --- | --- |
| COc1cc(/C=N/n2cnc3oc(-c4ccccc4)cc3c2=N)cc(CN2CCOCC2)c1O | 0 |
| CC(c1ccccc1)N1C(=O)/C(=C/c2csc(C#N)n2)SC1=S (stereo unspecified) | 0 |
| COc1ccccc1/C=C/C=N/NC1=NC2C(S1)N(C)C(=O)N2c1ccccc1 (stereo unspecified) | 0 |

Req: Answer briefly: the call reported for Cc1nn(-c2ccccc2)cc1/C=N/Nc1nc(Nc2ccccc2)nc(Nc2ccc(S(N)(=O)=O)cc2)n1 in this assay.
Resp: 1

Req: What was the test verdict on CCn1c2ccc(/C=N/NS(=O)(=O)CCN(C)C)cc2c2cc(/C=N/NS(=O)(=O)CCN(C)C)ccc21 ?
Resp: 0

Req: # outcome recorded in this test, key = COc1ccc([C@H]2[C@H](O)C(=O)N2c2cc(OC)c(OC)c(OC)c2)cc1
Resp: 0

Req: Assay result, entry COc1ccc(Cn2cc3c(c2-c2ccccc2)CCCc2cnoc2-3)cc1[N+](=O)[O-] — outcome?
Resp: 0

Req: Can you look up the reported call for CCCCCCCCNC(=O)c1ccc(Cn2c(CCCC)nc3c(N)nc4ccccc4c32)cc1 for me?
Resp: 1

Req: Could you kindly confirm the outcome this assay logged for O=C(Cn1cc(CN2C(=O)c3ccc([N+](=O)[O-])cc3C2=O)nn1)Nc1ccccc1Br ?
Resp: 0

Req: I would be grateful if you could indicate the recorded call for O=C1NC(=O)c2c1c1c3ccccc3ccc1c1[nH]c3ccccc3c21 .
Resp: 0

Req: Assay result, entry CCN1C(=O)N(CC)C2SC(N/N=C/c3ccccc3)=NC21 (stereo unspecified) — outcome?
Resp: 0

Req: So what was the verdict on O=C(O)CNS(=O)(=O)c1ccc(Oc2ccc(S(=O)(=O)NCC(=O)O)cc2)cc1 in this test?
Resp: 0

Req: # outcome recorded in this test, key = CCOP(=O)(OCC)OC[C@]12CCC(C)(C)C[C@H]1C1=CC[C@@H]3[C@@]4(C)C/C(=C\c5cccnc5)[C@H](OP(=O)(OCC)OCC)C(C)(C)[C@@H]4CC[C@@]3(C)[C@]1(C)CC2
Resp: 0

Req: Please state the recorded outcome for this compound: Cn1c2ccc(Br)cc2c2c3c(c4c5cc(F)ccc5oc4c21)C(=O)N(O)C3=O
Resp: 0

Req: Which outcome did this test record for the compound O=C1Nc2cc(OC(F)(F)F)ccc2Oc2ccc(-c3ccnc(N4CCNCC4)c3)cc21 ?
Resp: 1

Req: For COc1ccc(/C(C)=C(\c2ccc(Cl)cc2)c2ccc(OCCN)cc2)cc1 , what call appears in the results of this test?
Resp: 0

Req: Which result was noted for this compound in the test: Cc1ccc(-c2cc(-c3cccc4ccccc34)n3c(n2)nc2ccccc23)cc1
Resp: 0

Req: Answer briefly: the call reported for CCOC(=O)C1=C(C)Nc2nnc(Nc3ccccc3)n2C1c1ccccc1 (stereo unspecified) in this assay.
Resp: 0

Req: What did the test return for CS(=O)c1nccc(-c2c(-c3ccc(F)c(OCCc4ccccc4)c3)nc3sccn23)n1 (stereo unspecified) ?
Resp: 0

* * *

tested on: LOX IMVI melanoma; assay: NCI-60 one-dose screen, 48 h (100 = growth as untreated, 0 = no growth, -100 = all killed); settings: 10 µM unless noted
Compounds without any hit were thinned out: in the full panel of roughly 83,000, 20% have a hit.
Recorded measurements of growth, one per entry
Supply the numeric figure in %, leaving out any unit text.

| compound | u | growth |
| --- | --- | --- |
| O=C(Nc1ccc(F)cc1)c1cc(-c2ccc(F)cc2F)ccc1O | % | 4.96 |

Req: Answer with the recorded growth of COc1ccc(-c2cc(-c3ccc(Cl)cc3)nc3nc(N)nn23)cc1 only.
Resp: 105

Req: Supply measured growth of O=C1CSC(=O)N1Cc1cc2ccccc2nc1Cl in your reply.
Resp: 97.4

Req: Note down growth recorded for O=C(NCCCNc1cc(-c2cn(-c3ccccc3)nc2-c2cccc(O)c2)ccn1)Nc1cccc(C(F)(F)F)c1
Resp: 8.34

Req: Supply growth value. Item: N#Cc1c(NC(=O)c2ccc(F)c(Cl)c2)sc2c1CCC(=O)C2
Resp: -16.1

Req: Given CN1CCN(c2nc(-c3csc(-c4ccncc4)n3)cc3ccccc23)CC1 , respond with its growth.
Resp: 11.4

Req: Name the recorded growth of the compound listed here: c1ccc(-c2n(Cc3ccc4ccccc4c3)c3c4ccccc4c4ccccc4c3[n+]2Cc2ccc3ccccc3c2)cc1
Resp: -86.2

Req: Look up and report measured growth for this entry: COC[C@]12CC[C@@H](C)[C@H](C)[C@H]1C1=CC[C@@H]3[C@@]4(C)CCCNC(C)(C)[C@@H]4CC[C@@]3(C)[C@]1(C)CC2
Resp: -87.8

Req: Specify measured growth for COc1ccc(-c2nnc(SCc3ccc(O)c4ncccc34)o2)cc1 .
Resp: 19.7

Req: Give recorded growth. C#C[C@]1(O)CC[C@H]2[C@@H]3CC=C4c5sc(Nc6cc(OC)ccc6OC)nc5CC[C@]4(C)[C@H]3CC[C@@]21C
Resp: 5.19

* * *

test system: U251 CNS; test: NCI-60 one-dose screen, 48 h (100 = growth as untreated, 0 = no growth, -100 = all killed); details: 10 µM unless noted
The panel holds about 83,000 compounds, 20% with a hit somewhere; the sample as a whole holds those more often.
Recorded growth for the following compounds
Field format: number, assumed %, no unit text.

Consider the worked cases shown below.
| chemicalSmiles | reported |
| --- | --- |
| O=C(CCCCCCN1CC(=O)N2[C@@H](c3cccc(Br)c3)c3[nH]c4ccccc4c3C[C@H]2C1=O)NO | 25 |
| CCOC(=O)c1c(NC(=O)c2ccc(F)cc2F)sc2c1CCC(=O)C2 | 53.5 |
| CN(C)c1ccc(/C=N/Nc2nc(N/N=C/c3ccc(N(C)C)cc3)nc(N3CCOCC3)n2)cc1 | 44.3 |
| COc1cc(O)c2c(c1)[C@H]1O[C@@H]1C[C@H](O)[C@H](O)C(=O)/C=C\C[C@H](C)OC2=O | 72.4 |
| CCOC(=O)c1c(Nc2ccccc2)nn2c(-c3ccc(Br)cc3)ccnc12 | 66.3 |
| CC1(C)CC[C@]2(C(=O)N3CCCN(CC#N)CC3)CC[C@]3(C)C(=CC[C@@H]4[C@@]5(C)CC[C@H](O)C(C)(C)[C@@H]5CC[C@]43C)[C@H]2C1 | 56.1 |

Req: Indicate its recorded growth; the compound in question is c1ccc(-c2n(Cc3ccc4ccccc4c3)c3c4ccccc4c4ccccc4c3[n+]2Cc2ccc3ccccc3c2)cc1
Resp: -78.7

Req: Return value of growth for input Nc1nc(-c2cccc([N+](=O)[O-])c2)c(N=Nc2ccccc2Cl)s1 , no commentary.
Resp: 43.9

* * *

The compounds listed here are annotated with their growth.
test system: A498 renal; test: NCI-60 one-dose screen, 48 h (100 = growth as untreated, 0 = no growth, -100 = all killed); details: 10 µM unless noted
This is part of a sample that, as a whole, favours compounds with a hit. Of some 83,000 tested, about 20% had one in any assay.
Unit % implied. Number only.

Study these solved cases before continuing.
| compound | u | growth |
| --- | --- | --- |
| COc1ccc(-c2nc(SCCC(C)C)nc(N/N=C\c3ccc(O)cc3)c2C#N)cc1 | % | 92.5 |
| O=[N+]([O-])c1ccc(-c2nnc(SCc3ccc(O)c4ncccc34)o2)cc1 | % | 27.7 |
| O=C1c2cc(Br)ccc2-n2c1nc1cc(Br)ccc1c2=O | % | 125 |
| COc1cc(C2CC(c3ccc(Nc4nc(NCCO)nc(Nc5ccc(Cl)cc5)n4)cc3)=Nc3c(N)nc(N)nc3N2)cc(OC)c1OC (stereo not given) | % | 99.8 |
| CC(C)SC1=NC(=C(C(=N1)NC2=ClC=CC=C2)C#N)C3=CC=CC=C3 | % | 71.6 |
| Cn1cc(-c2nn3cc(-c4cccnc4)nc3s2)c2cc(F)ccc21 | % | 103 |
| C=CCn1c(SCC(=O)Nc2cccc(C(=O)/C=C/c3ccc(OC)c(OC)c3)c2)nc2ccccc2c1=O | % | 89.3 |
| O=C1CC2(CCOCC2)Oc2ncccc21 | % | 99.6 |

Req: Answer with the recorded growth for the compound listed here: NS(=O)(=O)c1ccc(-n2cc(CC=O)nn2)cc1
Resp: 96

Req: Provide growth value for the following compound: NCCN1CCN(c2nc(-c3ccccc3)nc3nc(-c4ccccc4)oc23)CC1
Resp: 61.7

Req: Tell me its growth given Oc1ccccc1-c1nnc(SCc2ccc(O)c3ncccc23)o1 as the entry.
Resp: 81.7
